- Protocol details: qHTS of pediatric cancer cell lines to identify multiple opportunities for drug repurposing: Primary screen for SK-N-MC cells (AID 1347093)
- Experimental setup: SK-N-MC viability, CellTiter-Glo luminescence, 48 h; series mostly up to 46 µM
Inconclusive results are not listed. Activity calls are given as the source filed them. Calls come from the whole dose curve; as a rule, active = well fitted cell-killing curve with a large enough effect; inconclusive = small, poorly fitted or top-dose-only effect; inactive = no such curve, though single readings can be large or run the other way.
Could you please pick one outcome from this set? active, inactive

Would you mind telling me which call this test gave `CCCSc1ccc2nc(NC(=O)OC)[nH]c2c1` ?
active

Would you mind telling me which call this test gave `Cc1c(Nc2ncccc2C(=O)O)cccc1C(F)(F)F` ?
active

Would you mind telling me which call this test gave `CCCCCCCCCCCCOCCO` ?
inactive

Would you mind telling me which call this test gave `O=C(OCc1ccccc1)c1ccccc1` ?
inactive

Would you mind telling me which call this test gave `NC(=O)C(c1ccccc1)(c1ccccc1)[C@@H]1CCN(CCc2ccc3c(c2)CCO3)C1` ?
inactive

Would you mind telling me which call this test gave CC(C(=O)O)c1ccc(C(=O)c2ccccc2)s1 (stereo not given) ?
inactive

###

- Protocol details: S16 Schwann cell PMP22 intronic element beta-lactamase assay (AID 624044); note: nearly all actives have a fitted effect of over 15% in size; note: potency is the fitted concentration of half-maximal effect
- Experimental setup: S16 rat Schwann cells, PMP22 element beta-lactamase FRET, 24 h; series mostly up to 38.3 µM
Inconclusive results are not listed. Active and inactive are the calls of the source. Calls come from the whole dose curve.
Assay metric: Potency

Record summary for `O=C1CN(/N=C/c2ccc(-c3ccc([N+](=O)[O-])cc3)o2)C(=O)N1` : reported Potency = inactive

Record summary for CCC1C(=O)OCC1Cc1cncn1C (stereo unspecified) : reported Potency = inactive

Record summary for `COc1ccc(/C=C/C(=O)Nc2ccccc2C(=O)O)cc1OC` : reported Potency = inactive

Record summary for `CCCCC[C@H](O)/C=C/[C@@H]1[C@@H](C/C=C\CCCC(=O)O)[C@@H](O)C[C@H]1O` : reported Potency = inactive

Record summary for `CCCCCCCCCCCCCCCC(=O)OC(C)C` : reported Potency = inactive

More entries:
Record summary for `CC(=O)[C@]1(O)Cc2c(O)c3c(c(O)c2[C@@H](O[C@H]2C[C@H](N)[C@H](O)[C@H](C)O2)C1)C(=O)c1c(O)cccc1C3=O` : reported Potency = 0.398 µM (active)

Record summary for `Cc1cc(O)c2ccccc2c1O` : reported Potency = inactive

Record summary for `CN(C)c1ccc(C(=C2C=CC(=[N+](C)C)C=C2)c2ccccc2)cc1` : reported Potency = 3.98 µM (active)

###

- Assayed target: Flap endonuclease 1 (Homo sapiens)
- Protocol details: qHTS Validation Assay for the Inhibitors of Human Flap endonuclease 1 (FEN1) (AID 488816)
- Experimental setup: FEN1 nuclease activity, fluorogenic DNA substrate; series mostly up to 57.1 µM
Activity calls are given as the source filed them. Calls follow the shape of the dose curve; as a rule, active = well fitted inhibition curve with a large enough effect; inconclusive = small, poorly fitted or top-dose-only effect; inactive = flat fitted curve, though single readings scatter.
Assay metric: outcome

Known results for compounds:
GET /values?item= NCC1OC(O[C@H]2[C@H](O)[C@@H](OC3C(O)C(N)CC(N)C3OC3OC(CO)C(O)C(O)C3N)O[C@@H]2CO)C(N)C(O)C1O (stereo partly specified) &system= Flap endonuclease 1 (Homo sapiens) returns outcome: inactive

GET /values?item= `NS(=O)(=O)C#Cc1ccccc1` &system= Flap endonuclease 1 (Homo sapiens) returns outcome: inactive

GET /values?item= CO/S(=N\S(=O)(=O)c1ccc(Cl)cc1)c1ccc([N+](=O)[O-])cc1 (stereo unspecified) &system= Flap endonuclease 1 (Homo sapiens) returns outcome: inactive

GET /values?item= `CN1CC(=O)N/C1=N/C(=O)Nc1cccc(Cl)c1` &system= Flap endonuclease 1 (Homo sapiens) returns outcome: inactive

GET /values?item= `Fc1ccc(C(OCCCc2cnc[nH]2)c2ccc(F)cc2)cc1` &system= Flap endonuclease 1 (Homo sapiens) returns outcome: inactive

More entries:
GET /values?item= `Cc1ccc(O)c(N=Nc2ccccc2)n1` &system= Flap endonuclease 1 (Homo sapiens) returns outcome: inactive

Where do these numbers come from? They come from PubChem BioAssay (NCATS).
